Values compiled from patent US11512080B2.

Consider the following molecules; for each one, report its pIC50.
- TARGET OF ASSAY: His-tagged CRBN-DDB1 complex (Homo sapiens (Human), UniProt Q96SW2)
- Sequence (Q96SW2 whole entry): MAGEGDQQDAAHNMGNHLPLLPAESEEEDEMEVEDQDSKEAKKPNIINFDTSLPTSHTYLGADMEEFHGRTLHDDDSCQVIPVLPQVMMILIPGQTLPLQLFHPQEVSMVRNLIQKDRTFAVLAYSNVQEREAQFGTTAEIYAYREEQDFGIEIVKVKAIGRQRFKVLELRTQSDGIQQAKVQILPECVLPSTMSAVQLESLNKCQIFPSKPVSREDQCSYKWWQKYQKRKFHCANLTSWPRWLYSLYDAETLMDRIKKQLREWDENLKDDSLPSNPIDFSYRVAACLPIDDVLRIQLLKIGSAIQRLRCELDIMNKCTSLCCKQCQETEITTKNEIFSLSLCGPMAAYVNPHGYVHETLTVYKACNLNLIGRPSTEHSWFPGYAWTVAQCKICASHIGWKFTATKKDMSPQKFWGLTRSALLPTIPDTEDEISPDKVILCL
- Sequence (Q16531 whole entry partner): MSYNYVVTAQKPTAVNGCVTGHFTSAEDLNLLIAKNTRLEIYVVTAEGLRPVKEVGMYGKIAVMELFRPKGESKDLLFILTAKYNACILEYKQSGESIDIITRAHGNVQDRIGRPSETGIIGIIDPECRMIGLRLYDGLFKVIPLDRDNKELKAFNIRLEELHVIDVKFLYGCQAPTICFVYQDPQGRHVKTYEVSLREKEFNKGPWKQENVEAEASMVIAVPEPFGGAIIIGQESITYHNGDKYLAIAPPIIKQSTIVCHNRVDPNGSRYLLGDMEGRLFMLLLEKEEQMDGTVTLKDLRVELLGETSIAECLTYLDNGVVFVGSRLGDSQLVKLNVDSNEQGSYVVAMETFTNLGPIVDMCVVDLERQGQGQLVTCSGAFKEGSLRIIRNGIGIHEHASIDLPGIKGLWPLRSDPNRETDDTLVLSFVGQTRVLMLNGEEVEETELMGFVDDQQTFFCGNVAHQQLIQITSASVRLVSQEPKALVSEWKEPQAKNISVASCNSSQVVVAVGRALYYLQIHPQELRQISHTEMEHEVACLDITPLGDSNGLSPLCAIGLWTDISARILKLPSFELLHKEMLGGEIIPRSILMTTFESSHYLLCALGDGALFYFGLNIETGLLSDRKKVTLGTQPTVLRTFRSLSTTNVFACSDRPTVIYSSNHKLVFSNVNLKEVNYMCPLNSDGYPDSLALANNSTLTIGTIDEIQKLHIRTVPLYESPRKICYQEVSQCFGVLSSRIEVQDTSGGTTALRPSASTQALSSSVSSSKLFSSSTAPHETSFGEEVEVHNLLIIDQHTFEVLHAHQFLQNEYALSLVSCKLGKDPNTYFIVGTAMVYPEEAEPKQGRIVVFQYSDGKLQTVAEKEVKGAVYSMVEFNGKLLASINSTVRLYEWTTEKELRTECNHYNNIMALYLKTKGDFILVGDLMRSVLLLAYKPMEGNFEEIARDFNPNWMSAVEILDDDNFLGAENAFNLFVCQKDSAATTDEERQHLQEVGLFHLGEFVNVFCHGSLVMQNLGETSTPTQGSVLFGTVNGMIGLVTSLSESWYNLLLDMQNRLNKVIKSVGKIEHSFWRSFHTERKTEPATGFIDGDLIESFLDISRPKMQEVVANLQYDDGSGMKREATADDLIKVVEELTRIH
- EXPERIMENT NOTES: Time-Resolved Fluorescence Resonance Energy Transfer (TR-FRET) assay
- Format: binding
- CONDITION PARAMETERS: read-out: CRBN HTRF IC50
pIC50: −log10 of the molar value.

Consider the molecule shown here: Cc1ccc(SC2CCC(=O)NC2=O)c(C)c1 (stereo not shown) What is its recorded pIC50?
5.00 to 6.00

Moving on to Nc1ccc(SC2CCC(=O)NC2=O)cc1 (stereo not shown)
4.00 to 5.00

Moving on to O=C1NC(=O)C(N2CC(c3ccccc3)OC2=O)S1 (stereo not shown)
4.00 to 5.00

Moving on to CNC(=O)c1ccnc(SC2CCC(=O)NC2=O)c1 (stereo not shown)
4.00 to 5.00

Moving on to O=C1CCC(Sc2ccc(Cl)cc2)C(=O)N1 (stereo not shown)
4.00 to 5.00

Moving on to O=C1CCC(Sc2ncccn2)C(=O)N1 (stereo not shown)
4.00 to 5.00

Moving on to O=C1CCC(Sc2ccccc2O)C(=O)N1 (stereo not shown)
5.00 to 6.00

Moving on to CCc1ccc(S(=O)(=O)C2CCC(=O)NC2=O)cc1 (stereo not shown)
4.00 to 5.00

Moving on to O=C1CCC(Sc2ccc(CO)cc2)C(=O)N1 (stereo not shown)
4.00 to 5.00

Moving on to O=C1CCC(Sc2ncccc2C(=O)O)C(=O)N1 (stereo not shown)
5.00 to 6.00

###

- TARGET OF ASSAY: His-tagged CRBN-DDB1 complex (Homo sapiens (Human), UniProt Q96SW2)
- EXPERIMENT NOTES: Time-Resolved Fluorescence Resonance Energy Transfer (TR-FRET) assay
- Type: binding
- CONDITION PARAMETERS: competition with Cy5-labeled thalidomide (8 nM), 1 hour at room temperature; read-out: CRBN HTRF IC50
PROPERTY: IC50

Consider the compound shown here: Cn1cc2ccccc2c(N2CCC(=O)NC2=O)c1=O [Compound I-146] What is its recorded IC50?
> 100 µM

Moving on to Cn1nc(C2SC(=N)NC2=O)c2ccccc21 (centres unmarked) [Compound I-81]
> 100 µM

Moving on to O=C1NC(=O)C(N2CCN(c3ccccc3)CC2=O)S1 (centres unmarked) [Compound I-82]
> 100 µM

Moving on to Cn1cccc(N2CCC(=O)NC2=O)c1=O [Compound I-143]
> 100 µM

Moving on to CN1Cc2ccccc2C(N2CCC(=O)NC2=O)C1=O (centres unmarked) [Compound I-145]
> 100 µM

###

Consider the following molecules; for each one, report its IC50.
- TARGET OF ASSAY: His-tagged CRBN-DDB1 complex (Homo sapiens (Human))
- EXPERIMENT NOTES: Time-Resolved Fluorescence Resonance Energy Transfer (TR-FRET) assay
- Format: binding
- CONDITION PARAMETERS: read-out: CRBN HTRF IC50

Consider the molecule shown here: CC(C)c1ccc(SC2CCC(=O)NC2=O)cc1 (stereo not drawn) What is its recorded IC50?
1 to 10 µM

Moving on to CCCCc1ccc(SC2CCC(=O)NC2=O)cc1 (stereo not drawn)
1 to 10 µM

Moving on to CCn1c(SC2CCC(=O)NC2=O)nc2ccccc21 (stereo not drawn)
1 to 10 µM

Moving on to O=C1CCC(Sc2cccc(CO)c2)C(=O)N1 (stereo not drawn)
10 to 100 µM

Moving on to CCc1cccc(SC2CCC(=O)NC2=O)c1 (stereo not drawn)
1 to 10 µM

Moving on to COc1ccc(SC2CCC(=O)NC2=O)cc1 (stereo not drawn)
10 to 100 µM

Moving on to CC(C)(C)n1c(SC2CCC(=O)NC2=O)nc2ccccc21 (stereo not drawn)
10 to 100 µM

Moving on to CCc1ccc(OC2CCC(=O)NC2=O)cc1 (stereo not drawn)
1 to 10 µM

Moving on to O=C1CCC(Sc2cc(-c3nn[nH]n3)ccn2)C(=O)N1 (stereo not drawn)
1 to 10 µM

Moving on to CCN(CC)c1ccc(SC2CCC(=O)NC2=O)cc1 (stereo not drawn)
1 to 10 µM

Moving on to O=C1CCC(Oc2cccc3cccnc23)C(=O)N1 (stereo not drawn)
10 to 100 µM

Moving on to O=C1CCC(Sc2ccc(Cl)cn2)C(=O)N1 (stereo not drawn)
1 to 10 µM

Moving on to O=C1CCC(Sc2cc(C(F)(F)F)cc(C(F)(F)F)c2)C(=O)N1 (stereo not drawn)
10 to 100 µM

Moving on to O=C1CCC(Oc2ccc3ccccc3c2)C(=O)N1 (stereo not drawn)
1 to 10 µM

Moving on to CN(C)c1ccc(SC2CCC(=O)NC2=O)cc1 (stereo not drawn)
1 to 10 µM

Moving on to Cc1occc1SC1CCC(=O)NC1=O (stereo not drawn)
10 to 100 µM

Moving on to O=C1CCC(Oc2ccccc2)C(=O)N1 (stereo not drawn)
10 to 100 µM

Moving on to O=C1CCC(Sc2ccccc2OC(F)(F)F)C(=O)N1 (stereo not drawn)
1 to 10 µM

Moving on to CCCCc1ccc(OC2CCC(=O)NC2=O)cc1 (stereo not drawn)
1 to 10 µM

Moving on to CC(C)(C)c1ccc(OC2CCC(=O)NC2=O)cc1 (stereo not drawn)
1 to 10 µM

Moving on to O=C1CCC(Sc2cc(C(=O)O)ccn2)C(=O)N1 (stereo not drawn)
1 to 10 µM
